# Tested on: P. falciparum 3D7 trophozoites
# method.notes: Metabolomic fingerprint profiling LC-MS
# Type: cell-based, Plasmodium falciparum
# condition.label: metabolite D-sedoheptulose-1/7-phosphate; S2 Table Metabolomics, change in metabolite level after compound treatment
measured.metric: D-sedoheptulose-1/7-phosphate
One number for each entry.

// below: answered compounds
{"compound": "CCc1c(C)c(=N)c2ccccc2n1C [MMV006278]", "measured.metric": "D-sedoheptulose-1/7-phosphate", "measured.number": -0.2519}
{"compound": "Fc1ccc2[nH]c3c(NCCCN4CCOCC4)ncnc3c2c1 [MMV019871]", "measured.metric": "D-sedoheptulose-1/7-phosphate", "measured.number": 0.6203}

Turning now to a further compound:
Field request: D-sedoheptulose-1/7-phosphate | item: COc1ccccc1CNC(=O)CCn1c(=O)[nH]c2ccsc2c1=O [MMV019066]
0.1088

----------
Exercise: for every item that follows, state its recorded dihydroorotate.
# Test system: P. falciparum 3D7 trophozoites
# method.notes: Metabolomic fingerprint profiling LC-MS
# Format: cell-based, Plasmodium falciparum
# condition.label: S2 Table Metabolomics; metabolite dihydroorotate
Give bare numbers.

// below: answered compounds
{"compound": "CC1CCN(Cc2ccc(NC(=O)c3cc4ccc5cccnc5c4[nH]3)cc2)CC1", "dihydroorotate": 2.255}
{"compound": "CCCCCCOC(=O)C1=C(C)NC(=O)NC1c1ccccc1F (stereo not shown)", "dihydroorotate": 0.04156}
{"compound": "COc1ccccc1CNC(=O)CCn1c(=O)[nH]c2ccsc2c1=O", "dihydroorotate": 0.243}

I'm hoping you can list dihydroorotate for every compound here, please.
1. O=[N+]([O-])c1ccc(C=NNc2nc3ccccc3[nH]2)cc1
2. c1ccc2cc3c(Nc4ccc(N5CCOCC5)cc4)ccnc3cc2c1
3. CCN(CC)CCNc1ccnc2cc(Cl)ccc12
4. COc1ccc(-c2cc3c(SCC(=O)Nc4cc(C(F)(F)F)ccc4Cl)nccn3n2)cc1
5. Cc1ccc(N2C(=O)C3C(C2=O)C2(c4ccccc4)C(=O)C3(c3ccccc3)C(c3ccccc3)=C2c2ccccc2)cc1 (stereo not shown)
6. COc1ccc(C(=O)Nc2nonc2-c2ccc(OC)c(OC)c2)cc1Cl
7. COc1ccc(C=C2SC(=N)N(c3ccccc3OC)C2=O)cc1
8. CSC1=NC(=Nc2c(C)cccc2C)C2(CCC(C(C)(C)C)CC2)N1c1ccc(Cl)cc1 (stereo not shown)

[0.1326, 0.311, 0.1541, 4.797, -0.213, -1.311, 3.607, 4.453]

I'm hoping you can list dihydroorotate for every compound here, please.
1. CCOC(=O)c1cn(CC)c2cc(N(C)CCc3ccc(OC)c(OC)c3)c(F)cc2c1=O
2. CCc1c(C)c(=N)c2ccccc2n1C

1. 4.609
2. 0.1029

----------
# Test system: P. falciparum 3D7 trophozoites
# method.notes: Metabolomic fingerprint profiling LC-MS
# Assay type: cell-based, Plasmodium falciparum
# condition.label: S2 Table Metabolomics; peptide DLS/SDL/SID
measured.metric: DLS/SDL/SID

// below: answered molecules
{"molecule": "CCCCCC(=O)N1c2ccccc2N=C2CC(c3ccc(OC)c(OC)c3)CC(O)=C2C1c1ccc(C(F)(F)F)cc1 (stereo not drawn)", "DLS/SDL/SID": -2.559}
{"molecule": "COc1ccc(NC(=O)C2c3ccccc3C(=O)N(CC(C)C)C2c2cccs2)cc1 (stereo not drawn)", "DLS/SDL/SID": -4.745}
{"molecule": "COc1ccc(C=C2SC(=N)N(c3ccccc3OC)C2=O)cc1", "DLS/SDL/SID": 0.06441}
{"molecule": "COc1ccccc1CNC(=O)CCn1c(=O)[nH]c2ccccc2c1=O", "DLS/SDL/SID": -0.1223}
{"molecule": "CCOc1cc2c(cc1OCC)C(c1cc(OC)c(O)cc1Cl)NCC2 (stereo not drawn)", "DLS/SDL/SID": -0.5828}

I'm hoping you can list DLS/SDL/SID for every molecule here, please.
1. CCN1CCN(Cc2ccc(NC(=O)c3cc4ccc5cccnc5c4[nH]3)cc2)CC1
2. COc1ccc(-c2nc3cc(Cc4ccc5[nH]c(-c6ccc(OC)cc6)nc5c4)ccc3[nH]2)cc1
3. COc1ccc(-c2nc(NC(=O)CS(=O)(=O)c3ccc(F)cc3)sc2C)cc1
4. O=C(NCC(c1ccsc1)N1CCCCCC1)c1ccc(C(F)(F)F)cc1 (stereo not drawn)
5. CN(C)CCCNc1c2ccccc2nc2ccccc12
6. c1ccc(Cn2c(N=Nc3c(Nc4ccccc4)ccc4ccccc34)nc3ccccc32)cc1

1: -1.1; 2: -1.761; 3: -0.2498; 4: 0.4945; 5: 0.06919; 6: -0.4178

I'm hoping you can list DLS/SDL/SID for every molecule here, please.
1. O=C(CSc1nccn2nc(-c3ccccc3)cc12)Nc1cc(C(F)(F)F)ccc1Cl
2. CN(C)c1ccc(C=Cc2nc(=O)c3ccccc3o2)cc1
3. CSC1=NC(=Nc2c(C)cccc2C)C2(CCC(C(C)(C)C)CC2)N1c1ccc(Cl)cc1 (stereo not drawn)

1: -0.3424; 2: -0.2456; 3: 0.1058

Field request: DLS/SDL/SID | item: CCOC(=O)c1cnc2ccc(CC)cc2c1O
0.1623

----------
# Tested on: P. falciparum 3D7 trophozoites
# method.notes: Metabolomic fingerprint profiling LC-MS
# Format: cell-based, Plasmodium falciparum
# condition.label: metabolite GMP; S2 Table Metabolomics, change in metabolite level after compound treatment
Exercise: for every item that follows, state its recorded GMP.
Answers are plain numbers.

{"molecule": "CCC1(C)CC(CCNCc2ccccc2O)(c2ccc(C)cc2)CCO1 (stereo not shown) [MMV019406]", "GMP": -0.3975}
{"molecule": "CCOC(=O)c1cnc2ccc(CC)cc2c1O [MMV007116]", "GMP": -0.15}
{"molecule": "O=C(CSc1nccn2nc(-c3ccccc3)cc12)Nc1cc(C(F)(F)F)ccc1Cl [MMV396678]", "GMP": 0.3554}

Turning now to a further molecule:
Reported GMP for P. falciparum 3D7 trophozoites, given CCC(c1ccccc1)c1nn2c(-c3cccs3)nnc2s1 (stereo not shown) [MMV665876] ?
-0.3833

----------
# System: P. falciparum 3D7 trophozoites
# method.notes: Metabolomic fingerprint profiling LC-MS
# Assay type: cell-based, Plasmodium falciparum
# condition.label: S2 Table Metabolomics; metabolite dTDP
measured.metric: dTDP
Give bare numbers.

{"compound": "CCOC(=O)c1c(NC(=O)c2ccccc2)sc2c(O)c(CN(CC)CC)ccc12 [MMV665831]", "dTDP": -0.143}
{"compound": "COc1ccc(C=C2SC(=N)N(c3ccccc3OC)C2=O)cc1 [MMV666691]", "dTDP": -0.4485}
{"compound": "COc1ccc(C(=O)Nc2nonc2-c2ccc(OC)c(OC)c2)cc1Cl [MMV011567]", "dTDP": 4.376}

I'm hoping you can list dTDP for every compound here, please.
1. CNCCCNc1ccnc2cc(Cl)ccc12 [MMV020500]
2. CN(C)c1ccc(C(O)(c2ccc(N(C)C)cc2)c2ccc(N(C)C)cc2)cc1 [MMV665941]
3. CCCc1c(CC)c(=N)c2ccccc2n1C [MMV008416]
4. O=C1C(O)=C([C@H]2CC[C@H](c3ccc(Cl)cc3)CC2)C(=O)c2ccccc21 [Atovaquone, reference compound]
5. CCN1CCN(Cc2ccc(NC(=O)c3cc4ccc5cccnc5c4[nH]3)cc2)CC1 [MMV020548]
6. CCOC(=O)c1cn(CC)c2cc(N(C)CCc3ccc(OC)c(OC)c3)c(F)cc2c1=O [MMV665977]
7. COc1cccc(NC(=O)[C@H](C(C)C)n2c(=O)[nH]c3ccccc3c2=O)c1 [MMV665878]
8. CCCc1cc(O)c2c3c(c(=O)oc2c1)CN(C)CC3 [MMV665841]

1. 0.7101
2. -0.3693
3. 0.4591
4. -0.7104
5. 0.1022
6. 0.1785
7. 2.818
8. -0.09857

I'm hoping you can list dTDP for every compound here, please.
1. CN(C)CCCNc1c2ccccc2nc2ccccc12 [MMV000448]
2. CCC1(C)CC(CCNCc2ccccc2O)(c2ccc(C)cc2)CCO1 (centres unmarked) [MMV019406]
3. CCOC(=O)c1cn(CC)c2cc(N3CCCCC3)c(F)cc2c1=O [MMV665827]

-0.2724
0.1057
0.1707

----------
# Test system: P. falciparum 3D7 trophozoites
# method.notes: Metabolomic fingerprint profiling LC-MS
# Type: cell-based, Plasmodium falciparum
# condition.label: metabolite level change after treatment
measured.metric: FMN
One number for each entry.

{"compound": "Cc1ccc(Nc2nc(NCCO)c3ccccc3n2)cc1C [MMV001038]", "FMN": 0.7846}

I'm hoping you can list FMN for every compound here, please.
1. Cc1cc(C)c2c(c1)OCN(Cc1ccccc1Cl)C2 [MMV006558]
2. COc1cc(OC)c(N(C)C(=O)c2cc3c(s2)-c2ccccc2S(=O)(=O)C3)cc1Cl [MMV006427]

[-0.2862, 0.1283]
